Target: T1, 4H48-bA
T1 chain: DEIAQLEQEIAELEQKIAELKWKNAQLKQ
Test: two-hybrid library CCNG1;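 note: natural log of median RNA to DNA barcode read ratio; higher means stronger binding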
reportedEndpoint: interaction score
Would you mind answering with just the numeric figure?

Fill blank: measured interaction score of the binder DKIAQLKQKIAELKQKNAELKWKNAQLKQ [4H2944-bA] is ____.
-1.05

Fill blank: measured interaction score of the binder DKIAQLKQKIAELKQEIAELEWENAQLEQ [4H2883-bA] is ____.
1.3

Fill blank: measured interaction score of the binder DKIAQLKQENAELEQEIAELEWKNAQLKQ [4H2696-bA] is ____.
-0.267

Fill blank: measured interaction score of the binder DEIAQLEQKIAELKQENAELEWKIAQLKQ [4H342-bA] is ____.
0.0458

Fill blank: measured interaction score of the binder DKIAQLKQKIAELKQKNAELKWEIAQLEQ [4H2937-bA] is ____.
0.573

Fill blank: measured interaction score of the binder DEIAQLEQEIAELEQKIAELKWKNAQLKQ [4H48-bA] is ____.
1.25

Fill blank: measured interaction score of the binder DEIAQLEQEIAELEQENAELEWENAQLEQ [4H19-bA] is ____.
-0.828
